# Test system: A549 NSCLC
# ASSAY NAME: NCI tumour cell line growth inhibition, 48 h
Listing: TGI of selected molecules

MOLECULE: C(=C\c1ccco1)/c1cccc(/C=C/c2ccco2)n1
TGI: > 50 µM
--
MOLECULE: Cc1ccc(Cl)cc1NC(=O)c1sc2nc3c(cc2c1N)C(=O)CCC3
TGI: > 100 µM
--
MOLECULE: NC(N)=Nc1ccc(CC(N)C(=O)O)cc1 (stereo unspecified)
TGI: > 12.5 µM
--
MOLECULE: COC(C)(C)C/C=C/C(C)=C/C=C/C(C)=C\C=C\C(C)=C\C=C\C=C(C)\C=C\C=C(C)\C=C\C=C(C)\C=C\CC(C)(C)OC
TGI: > 150 mg/L
--
MOLECULE: CC(=O)C1CC[C@@H]2[C@H](CC[C@]3(C)[C@@H](O)CC[C@@H]23)[C@H]1C(=O)O (stereo partly specified)
TGI: > 100 µM
--
MOLECULE: BrC(c1cccc2ccccc12)c1cccc2ccccc12
TGI: > 100 µM
